Reference for the values: PubChem BioAssay AID686979

# Test: qHTS for Inhibitors of human tyrosyl-DNA phosphodiesterase 1 (TDP1): qHTS in cells in presence of CPT; also: nearly all actives have a fitted effect of over 55% in size
# Particulars: chicken DT40 Tdp1-/-;hTDP1 cells + 20 nM CPT, ATP luminescence, 48 h; series mostly up to 46.2 µM
The whole screen tested about 420,000 compounds, of which about 50,000 (12%) were called active. Inconclusive results (about 26%) are left out. Calls follow the shape of the dose curve; as a rule, active = well fitted inhibition curve with a large enough effect; inconclusive = small, poorly fitted or top-dose-only effect; inactive = flat fitted curve, though single readings scatter. For the sample, actives were picked, then their nearest neighbours and some compounds at random.
The categories you may choose from are active, inactive

O=C(O)CSCC(=O)Nc1ccc(C(F)(F)F)cc1	inactive
Cc1ccc(C(=O)NNC2=Nc3cc([N+](=O)[O-])ccc3OC2)cc1	inactive
NNC(=O)c1nnn(-c2nonc2N)c1CN1CCCC1	inactive
O=C(Cn1c[n+](CC(=O)c2ccc([N+](=O)[O-])cc2)cn1)c1ccc([N+](=O)[O-])cc1	active
CC1(C)C(C=C(Cl)Cl)C1C(=O)NC(O)C(=O)c1ccccc1 (stereo not given)	inactive
O=C(c1ccncc1)c1ccc([N+](=O)[O-])cc1	inactive
COc1cc(OC)c(NC(=O)c2c3c(nn2C)-c2ccccc2SC3)cc1Cl	inactive
COc1ccccc1-c1cc(C(=O)N2CCCCC2)no1	inactive

Which result was noted for this compound in the test: CCOC(=O)c1nnn(-c2nonc2-n2cccc2)c1CN1CCC(C(=O)OCC)CC1
active

Record lookup: outcome of this test for CC[C@@]12C(=O)N(c3ccccc3)C(=O)N1[C@H](c1ccc(Br)cc1)[C@@H]1C(=O)N(C(C)(C)C)C(=O)[C@@H]12 ?
active
